These entries and their values trace back to PubChem BioAssay AID1159580.

experiment: chemical genetic growth profiling, strain panel (AID 1159580);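 further: tested at 20 µM; growth read once vehicle control cultures reached saturation at 30 °C; 1 = growth at the plate median or of vehicle wells; lower values mean less growth of the strain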; conditions: S. cerevisiae deletion strains, growth OD, locus YNL197C, strain WHI3, stronger effect = lower value
Hit rate of the full screen: of about 5,500 compounds, about 2,000 (36%) were called active. Not shown: some 18% with an inconclusive outcome. This is one part of the list.
Below, each entry is listed alongside its reported normalized growth.

As a guide, the following entries are already answered.
{"columns": ["Compound", "Test Value"],
 "data": [
  ["NCCCNCCCCNCCCN", "0.992 (inactive)"],
  ["Nc1ncn(C2OC(CO)C(O)C2O)c(=O)n1 (stereo not drawn)", "1.01 (inactive)"]
]}

Incoming: Field request: normalized growth | item: CN=C(NC#N)Nc1ccc(C2=NNC(=O)CC2C)cc1 (stereo not drawn)
Outgoing: 0.994 (inactive)

---

Below, each entry is listed alongside its reported normalized growth.
experiment: chemical genetic growth profiling, strain panel (AID 1159580);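 further: tested at 20 µM; growth read once vehicle control cultures reached saturation at 30 °C; 1 = growth at the plate median or of vehicle wells; lower values mean less growth of the strain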; details: S. cerevisiae deletion strains, growth OD, locus YBR229C, strain ROT2, stronger effect = lower value
Screen size: about 5,500 compounds; about 2,000 (36%) were called active. Inconclusive results (about 18%) are left out. Some of the results follow.
Reply: number alone, nothing else.

As a guide, the following entries are already answered.
{"columns": ["Compound", "Readout Name", "Test Value"],
 "data": [
  ["CC(=O)OCC(=O)[C@@]1(O)[C@H](C)CC2C3CCC4=CC(=O)C=C[C@]4(C)[C@@]3(F)[C@@H](O)C[C@@]21C (stereo not given in full)", "normalized growth", 1.01],
  ["COC(=O)c1c(C)c2c(c(C)c1OC)OC(=O)c1c(C)c(Cl)c(OC)c(Cl)c1O2", "normalized growth", 1.01],
  ["CC(C)c1ccc2c(c1)CCC1C(C)(C(N)=O)CCCC21C (stereo not given)", "normalized growth", 0.983],
  ["COC(=O)c1c(C)c2c(c(C)c1O)OC(=O)c1c(C)c(Cl)c(O)c(Cl)c1O2", "normalized growth", 0.985]
]}

Next item in the queue.
Incoming: Field request: normalized growth | item: Oc1cccc(O)c1
Outgoing: 1.01

---

test: chemical genetic growth profiling, strain panel (AID 1159580);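 further: tested at 20 µM; growth read once vehicle control cultures reached saturation at 30 °C; 1 = growth at the plate median or of vehicle wells; lower values mean less growth of the strain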; conditions: S. cerevisiae deletion strains, growth OD, locus YDR101C, strain arx1, stronger effect = lower value
Among all 5,500 compounds or so, about 2,000 (36%) were called active. Inconclusive results (about 18%) are left out. The list shows a part of the results.
Readout Name: normalized growth

As a guide, the following entries are already answered.
{"columns": ["Compound", "Test Value"],
 "data": [
  ["CN(C)c1ccc(O)c2c1C[C@H]1C[C@H]3[C@H](N(C)C)C(=O)C(C(N)=O)=C(O)[C@@]3(O)C(=O)C1=C2O", "1 (inactive)"],
  ["COc1cc(C(C)=O)cc(OC)c1O", "1.01 (inactive)"],
  ["C/C1=C\\CC(C)(C)/C=C/CC2(C)OC2CC1 (stereo not drawn)", "0.968 (inactive)"],
  ["CC(C)CCCC(C)[C@H]1CCC2C3CC=C4C[C@@H](O)CC[C@]4(C)C3CC[C@@]21C (stereo partly drawn)", "0.962 (inactive)"],
  ["COc1ccc2cc(CCC(C)=O)ccc2c1", "0.931 (inactive)"],
  ["CC(=O)c1ccc(O)c(CC=C(C)C)c1", "0.968 (inactive)"]
]}

Incoming: Field request: normalized growth | item: CC(=O)O[C@H]1CC[C@@]2(C)C(=CC(=O)C3C4CCC(C(C)CCCC(C)C)[C@@]4(C)CCC32)C1 (stereo partly drawn)
Outgoing: 1 (inactive)

Incoming: How about CC1(C)CC2C1CC[C@]1(CBr)CCC3C(CC(=O)O)C(=O)O[C@@]32C1 (stereo partly drawn) ?
Outgoing: 0.98 (inactive)
